assay: ATG_TA_CIS: Attagene CIS-FACTORIAL HepG2 Assay for human TA Basal Promoter (AID 2282964); conditions: HepG2 Attagene CIS-factorial TA basal promoter reporter; actives raise or lower the signal
The source made the active and inactive calls. How the source made its calls: active means hit-call score of the fitted dose curve at least 0.9, where 1 is the maximum; inactive means score below 0.9.
Entry note: the call must match one of TRUE for active, FALSE for inactive

[
  {
    "Compound": "O=C(Cl)OCCOCCOC(=O)Cl",
    "Discrete label": "FALSE"
  },
  {
    "Compound": "O=C(CBr)c1ccc(O)cc1",
    "Discrete label": "FALSE"
  },
  {
    "Compound": "CCCCN(CCCCO)N=O",
    "Discrete label": "FALSE"
  },
  {
    "Compound": "CC(=Cc1ccccc1)[N+](=O)[O-]",
    "Discrete label": "FALSE"
  },
  {
    "Compound": "CC(C)(C)c1ccccc1O",
    "Discrete label": "FALSE"
  }
]

Next, consider the following compound.
Name the outcome recorded for CCCCCCCCCCBr in the assay.
FALSE

----------
test: ATG_TGFb_CIS: Attagene CIS-FACTORIAL HepG2 Assay for human Transforming Growth Factor (TGF) (AID 2282967); details: HepG2 Attagene CIS TGFb reporter, mRNA transcription; actives raise or lower the signal
Active and inactive are the calls of the source. How the source made its calls: active means hit-call score of the fitted dose curve at least 0.9, where 1 is the maximum; inactive means score below 0.9.
Tick one outcome: active, inactive

Take a look at these entries with their results.
[
  {
    "Compound": "Cc1cc(-c2cc(C)c(N)c(C)c2)cc(C)c1N",
    "Discrete label": "inactive"
  },
  {
    "Compound": "OC(Cc1ccccc1Cl)(Cn1[nH]cnc1=S)C1(Cl)CC1 (stereo not given)",
    "Discrete label": "inactive"
  },
  {
    "Compound": "CCCCCCCCCCCCCCC(Br)C(=O)O (stereo not given)",
    "Discrete label": "active"
  },
  {
    "Compound": "[F][Sn]([c]1ccccc1)([c]1ccccc1)[c]1ccccc1",
    "Discrete label": "inactive"
  },
  {
    "Compound": "c1ccc2sc(SNC3CCCCC3)nc2c1",
    "Discrete label": "active"
  }
]

What outcome does the record of this test show for C#C[C@]1(O)CC[C@H]2[C@@H]3CCC4=CC(=O)CC[C@]4(C)[C@H]3CC[C@@]21C ?
inactive

Cool, now OC[P+](CO)(CO)CO
inactive

Entry CCC[N+](CCC)(CCC)CCC please
inactive

Here is the next compound: CCOP(=S)(OCC)SCSc1cc(Cl)ccc1Cl
inactive

Another: C#CCOC(=O)/C=C(C)/C=C/CC(C)CCCC(C)C (stereo not given)
inactive

----------
target: human Phosphatase and Tensin Homolog (PTEN), PTEN (gene 5728); test: NVS_ENZ_hPTEN: NovaScreen (NVS) Enzymatic Assay for human Phosphatase and Tensin Homolog (PTEN) (AID 2283203)
Results filed as inconclusive are left out. Activity calls are given as the source filed them. The calls were made as follows: active = hit-call score of the fitted dose curve at least 0.9, where 1 is the maximum; inconclusive = response in the unintended direction; inactive = score below 0.9.

[
  {
    "Compound": "O=C1c2ccccc2C(=O)C1C(=O)C(c1ccccc1)c1ccc(Cl)cc1 (centres undefined)",
    "AC50": "15.2 µM (active)"
  },
  {
    "Compound": "N#Cc1cccnc1",
    "AC50": "inactive"
  },
  {
    "Compound": "CN(C)C(=S)S",
    "AC50": "inactive"
  },
  {
    "Compound": "Clc1cccc(Cl)c1Cl",
    "AC50": "inactive"
  }
]

----------
Read-out: Urokinase-type plasminogen activator receptor (uPAR), PLAUR (gene 5329)
Assay: BSK_4H_uPAR: BioMAP Diversity Plus: 4H Assay for Urokinase-type plasminogen activator receptor (uPAR) Biomarker Activity (AID 2283030)
Conditions: primary human endothelial cells (HUVEC); actives raise or lower the signal
Method: BSK_4H is a cell-based, multiplexed-readout assay that uses umbilical vein endothelium, a human vascular primary cell, with measurements taken at 24 hours after chemical dosing in a 96-well plate.BSK_4HAR is an assay component measured in the BSK_4H assay. It measures uPAR antibody related to regulation of gene expression using ELISA technology.Data from the assay component BSK_4HAR was analyzed into 1 assay endpoint. […]
Activity calls are given as the source filed them. Rule for the calls: active = hit-call score of the fitted dose curve at least 0.9, where 1 is the maximum; inactive = score below 0.9.
Choose the fitting class; nothing outside active, inactive is accepted.

Solved cases (2 shown):
[
  {
    "Compound": "CC(C=O)Cc1ccc2c(c1)OCO2 (stereo not drawn)",
    "Discrete label": "inactive"
  },
  {
    "Compound": "CCOP(=O)(OCC)OC(=CCl)c1ccc(Cl)cc1Cl",
    "Discrete label": "active"
  }
]

Entry Cc1cc(C)cc(C)c1 : call = ?
inactive

Consider next the compound Clc1cccc(Cl)c1Cl in the same way.
inactive

Also Cc1cccc(OP(=O)(Oc2cccc(C)c2)Oc2cccc(C)c2)c1 , if possible.
inactive

Moving on to the next compound: CCOC(=O)C(SP(=S)(OC)OC)c1ccccc1 (stereo not drawn)
active

Try this compound too: O=C(O)COc1cc(Cl)c(Cl)cc1Cl
inactive

Another compound to look at: O=C(Cc1ccccc1)OCCc1ccccc1
inactive

Same read-out for Cc1cc(C(C)(C)c2ccc(O)c(C)c2)ccc1O ?
active

Can you handle Cc1ccc(OP(=O)(Oc2ccc(C)cc2C)Oc2ccc(C)cc2C)c(C)c1 next?
inactive

Lookup Cc1cc(Cl)ccc1N
inactive

Same again, this time with CC(C)(COCC1CO1)COCC1CO1 (stereo not drawn)
inactive

// next record CCOP(=S)(OCC)OP(=S)(OCC)OCC
active

Now this one: Clc1cccc(Cl)c1
inactive

Similarly, CCOP(=O)(OCC)SCCSCC ?
inactive

----------
experiment: ATG_GATA_CIS: Attagene CIS-FACTORIAL HepG2 Assay for human GATA Binding Protein (AID 2282944); conditions: HepG2 GATA cis-element reporter, Attagene multiplex mRNA; actives raise or lower the signal
The source made the active and inactive calls. Rule for the calls: active = hit-call score of the fitted dose curve at least 0.9, where 1 is the maximum; inactive = score below 0.9.
# output must be one of true (1) (active), false (0) (inactive)

Lab log entry: CCOc1ccc(N)cc1 — outcome as called in the assay?
false (0)

----------
assay: ATG_FoxO_CIS: Attagene CIS-FACTORIAL HepG2 Assay for human Forkhead box O (FoxO) (AID 2282943); details: HepG2 Attagene cis-reporter, FoxO element, mRNA; actives raise or lower the signal
The source made the active and inactive calls. How the source made its calls: active means hit-call score of the fitted dose curve at least 0.9, where 1 is the maximum; inactive means score below 0.9.
// one of yes (active), no (inactive), no free text

Solved entries:
[
  {
    "Compound": "Oc1cccc(-c2ccccc2)c1",
    "Discrete label": "no"
  },
  {
    "Compound": "CCCCCCCCCCCCOS(=O)(=O)O",
    "Discrete label": "no"
  },
  {
    "Compound": "CCCCCCCCCCCCCl",
    "Discrete label": "no"
  },
  {
    "Compound": "CCCCOC(C)=O",
    "Discrete label": "no"
  },
  {
    "Compound": "C[C@H]1C(=O)O[C@@H]2CCN3CC=C(COC(=O)[C@](C)(O)[C@]1(C)O)[C@H]23",
    "Discrete label": "no"
  }
]

Dear colleague, could you share the recorded outcome for O=C(O)COc1ccc(Cl)cc1 when you have a moment?
no

Can you check O=C(Cl)OCCOCCOC(=O)Cl next?
no

Thanks! And CC(=O)C(F)(F)C(F)(F)F ?
no

Ok, now c1cc[c]([Sb]([c]2ccccc2)[c]2ccccc2)cc1
no

Now try C=CC(Cl)CCl (configuration not stated) .
no

Next record, please: CC(C)(c1ccc(O)c(-c2ccccc2)c1)c1ccc(O)c(-c2ccccc2)c1
no

Then CC(C)N(C(=O)CCl)c1ccccc1 ?
yes

----------
read-out: Interleukin-6 (IL6), IL6 (gene 3569); assay: BSK_CASM3C_IL6: BioMAP Diversity Plus: CASM3C Assay for Interleukin-6 (IL6) Biomarker Activity for (AID 2283040); settings: primary human coronary artery smooth muscle cells; actives raise or lower the signal
Active and inactive are the calls of the source. How the source made its calls: active means hit-call score of the fitted dose curve at least 0.9, where 1 is the maximum; inactive means score below 0.9.
I would appreciate it if you answered using one of these outcomes: active, inactive

[
  {
    "Compound": "OCCN(CCO)CCO",
    "Discrete label": "inactive"
  },
  {
    "Compound": "Cc1ccccc1OP(=O)(Oc1ccccc1C)Oc1ccccc1C",
    "Discrete label": "active"
  },
  {
    "Compound": "C=CC(Cl)CCl (stereo not given)",
    "Discrete label": "inactive"
  },
  {
    "Compound": "N#CCCC(Br)(C#N)CBr (stereo not given)",
    "Discrete label": "active"
  },
  {
    "Compound": "CC(C)N(C(=O)CCl)c1ccccc1",
    "Discrete label": "active"
  }
]

What outcome does the record of this test show for Nc1ccc(N)cc1 ?
inactive

----------
target: Peroxisome proliferator-activated receptor gamma (Homo sapiens) (UniProt P37231); test: ATG_PPARg_TRANS: Attagene TRANS-FACTORIAL HepG2 Assay for human Peroxisome Proliferator-activated Receptor-gamma (PPARg) (AID 2283007)
Sequence (P37231 whole entry, looked up): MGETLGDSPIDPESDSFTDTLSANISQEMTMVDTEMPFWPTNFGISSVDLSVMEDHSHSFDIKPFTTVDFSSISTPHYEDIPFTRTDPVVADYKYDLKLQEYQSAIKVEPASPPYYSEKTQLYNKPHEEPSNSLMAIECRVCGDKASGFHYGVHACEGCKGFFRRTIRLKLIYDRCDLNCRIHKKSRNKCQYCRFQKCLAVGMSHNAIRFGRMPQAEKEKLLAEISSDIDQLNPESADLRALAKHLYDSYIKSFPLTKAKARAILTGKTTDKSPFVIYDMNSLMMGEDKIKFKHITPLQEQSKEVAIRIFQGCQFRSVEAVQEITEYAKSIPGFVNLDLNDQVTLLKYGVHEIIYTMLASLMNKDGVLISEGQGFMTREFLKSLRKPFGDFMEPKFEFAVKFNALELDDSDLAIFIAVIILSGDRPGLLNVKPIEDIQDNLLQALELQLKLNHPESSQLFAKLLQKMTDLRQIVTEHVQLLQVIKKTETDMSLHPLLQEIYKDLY
Records with an inconclusive call do not appear. Calls of active or inactive are those of the source. How the source made its calls: active means hit-call score of the fitted dose curve at least 0.9, where 1 is the maximum; inconclusive means response in the unintended direction; inactive means score below 0.9.
Property name: AC50

Record excerpt, results attached:
[
  {
    "Molecule": "C=CCOC(N)=O",
    "AC50": "inactive"
  },
  {
    "Molecule": "O=C/C(Cl)=C(/Cl)C(=O)O",
    "AC50": "46.7 µM (active)"
  },
  {
    "Molecule": "O=[N+]([O-])c1ccc(Nc2ccccc2)cc1",
    "AC50": "inactive"
  },
  {
    "Molecule": "CC(C)(C)c1cc([N+](=O)[O-])cc(C(C)(C)C)c1O",
    "AC50": "5.15 µM (active)"
  },
  {
    "Molecule": "CC(C=O)Cc1ccc2c(c1)OCO2 (configuration not stated)",
    "AC50": "inactive"
  }
]

Given the entry O=C(CBr)c1ccc(O)cc1 , report its measured AC50.
inactive

Quick one: O=NN1CCCCCCC1
inactive

Let us now turn to C=CC(F)(C(F)(F)F)C(F)(F)C(F)(F)F (configuration not stated)
inactive

Another molecule to check: CCNc1nc(NCC)nc(SC)n1
inactive

Now consider c1ccc2sc(SNC3CCCCC3)nc2c1 .
6.77 µM (active)
